biological target: recombinant human KLK5 (human) (UniProt Q9Y337); test: pro-KLK1 LC/MS assay, 0.5 nM KLK5
Sequence (Q9Y337 67-293): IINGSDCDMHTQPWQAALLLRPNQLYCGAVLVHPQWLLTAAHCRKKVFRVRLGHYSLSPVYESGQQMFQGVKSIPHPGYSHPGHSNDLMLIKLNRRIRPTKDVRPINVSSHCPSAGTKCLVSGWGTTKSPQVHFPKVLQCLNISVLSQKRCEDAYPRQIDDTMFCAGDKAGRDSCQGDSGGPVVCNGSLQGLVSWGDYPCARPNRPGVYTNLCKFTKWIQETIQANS
pIC50: −log10 of the molar value.
measured.property: pIC50

binder	recorded.value
10C8 (antibody, V domains shown) VH: QSVKESEGGLFKPTDNLTLTCTVSGFSLSSYGVSWVRQAPGNGLEYIGFIGSGGFAYYASWAKSRSTITRNTNLNTVTLKMTSLTAADTATYFCARDDVGGGRSLDIWGPGTVVTVSS VL: NIVMTQTPASVEVAMGGTVIIKCQASQSISTYLSWYQQKPGQPPKLLIYSASTLASGVSSRFEGSGSGTQFTLTISGVQCADAATYYCHQDYTSNNVDNTFGGGTEVVVK	9.85
3-3F5 (antibody, V domains shown) VH: QSVKESEGGLFKPTDTLTLTCTVSGFSLNDYGVSWVRQAPGNGLEWIGAIGSSGVAWYANWAKGRSTITRNTNLNTVTLKMASLTAADTATYFCARDRDYGYRADDATSGMDLWGPGTLVTVSS VL: AYDMTQTPASVEAAVGGTVTIKCQASESIGNALAWYQQKPGQPPKLLIYDASDLASGVPSRFKGSGSGTQFTLTISGVECADAATYYCQQGDSHNNVDNIFGGGTEVVVK	9.82
9H3 (antibody, V domains shown) VH: QSVKESEGGLFKPTDTLTLTCTVSGFSLSGYGVSWVRQAPGKGLEYIGFIGSGGSAYYASWAKSRSTITRNTNLNTVTLKMTRLTAADTATYFCARDNVGGDMSLDIWGPGTLVTVSS VL: DIVMTQTPASVSEPVGGTVTIKCQASQNINNYLSWYQQKPGQPPKQLIYAASTLASGVPSRFKGSGSGTQFTLTISDLECADAATYYCHQDYTSNNVDNTFGGGTEVVVK	10.05
